system: Escherichia coli TOP10; experiment: shrunken log2 fold change of peptide-encoding DNA abundance (4.5 h post-induction vs induction); higher = less antimicrobial activity (less host growth inhibition); conditions: time post-induction: 4.5 h; library: site-saturation at positions 5, 18, 19, 20;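 further: peptides expressed intracellularly from a pBAD plasmid library in pooled LB shake-flask culture, induced with 0.3% L-arabinose, DNA abundance read by NGS, three biological replicates, DESeq2 with apeglm shrinkage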
Rule: fulfilled for shrunken log2 fold change not less than 0.05, not fulfilled for anything less.

sequence-code	assayed-system	label-value
RRIRKRPPRLPRPRPRPNVHPRP	Escherichia coli TOP10	fulfilled
RRIRNRPPRLPRPRPRPGDGPRP	Escherichia coli TOP10	fulfilled
RRIRPRPPRLPRPRPRPEAQPRP	Escherichia coli TOP10	fulfilled
RRIRERPPRLPRPRPRPMDHPRP	Escherichia coli TOP10	not fulfilled
RRIRSRPPRLPRPRPRPTWGPRP	Escherichia coli TOP10	fulfilled
RRIRMRPPRLPRPRPRPMWDPRP	Escherichia coli TOP10	fulfilled
RRIRIRPPRLPRPRPRPVLSPRP	Escherichia coli TOP10	not fulfilled
RRIRNRPPRLPRPRPRPERRPRP	Escherichia coli TOP10	fulfilled
RRIRHRPPRLPRPRPRPGPSPRP	Escherichia coli TOP10	fulfilled
RRIRPRPPRLPRPRPRPIHNPRP	Escherichia coli TOP10	not fulfilled
RRIRIRPPRLPRPRPRPGGFPRP	Escherichia coli TOP10	fulfilled
RRIRTRPPRLPRPRPRPNKQPRP	Escherichia coli TOP10	not fulfilled
RRIRHRPPRLPRPRPRPKENPRP	Escherichia coli TOP10	not fulfilled
RRIRMRPPRLPRPRPRPRLYPRP	Escherichia coli TOP10	fulfilled
RRIRPRPPRLPRPRPRPREHPRP	Escherichia coli TOP10	fulfilled
RRIRARPPRLPRPRPRPATAPRP	Escherichia coli TOP10	fulfilled
RRIRMRPPRLPRPRPRPLRFPRP	Escherichia coli TOP10	fulfilled
RRIRFRPPRLPRPRPRPVLTPRP	Escherichia coli TOP10	not fulfilled
RRIRFRPPRLPRPRPRPTEEPRP	Escherichia coli TOP10	not fulfilled
RRIRTRPPRLPRPRPRPGTRPRP	Escherichia coli TOP10	fulfilled
RRIRVRPPRLPRPRPRPGVHPRP	Escherichia coli TOP10	fulfilled
RRIRARPPRLPRPRPRPTRFPRP	Escherichia coli TOP10	fulfilled
RRIRERPPRLPRPRPRPDRGPRP	Escherichia coli TOP10	not fulfilled
RRIRSRPPRLPRPRPRPRYYPRP	Escherichia coli TOP10	not fulfilled
RRIRSRPPRLPRPRPRPQSHPRP	Escherichia coli TOP10	not fulfilled
RRIRLRPPRLPRPRPRPFFAPRP	Escherichia coli TOP10	fulfilled
RRIRTRPPRLPRPRPRPHCQPRP	Escherichia coli TOP10	not fulfilled
RRIRCRPPRLPRPRPRPEDQPRP	Escherichia coli TOP10	fulfilled
RRIRIRPPRLPRPRPRPPPSPRP	Escherichia coli TOP10	fulfilled
RRIRHRPPRLPRPRPRPFQAPRP	Escherichia coli TOP10	not fulfilled
RRIRCRPPRLPRPRPRPRWCPRP	Escherichia coli TOP10	not fulfilled
RRIRPRPPRLPRPRPRPTHNPRP	Escherichia coli TOP10	fulfilled
RRIRYRPPRLPRPRPRPLHRPRP	Escherichia coli TOP10	not fulfilled
RRIRWRPPRLPRPRPRPYRTPRP	Escherichia coli TOP10	not fulfilled
RRIRYRPPRLPRPRPRPACLPRP	Escherichia coli TOP10	not fulfilled
RRIRSRPPRLPRPRPRPKAKPRP	Escherichia coli TOP10	fulfilled
RRIRARPPRLPRPRPRPGLIPRP	Escherichia coli TOP10	fulfilled
RRIRFRPPRLPRPRPRPYHQPRP	Escherichia coli TOP10	not fulfilled
RRIRKRPPRLPRPRPRPHSAPRP	Escherichia coli TOP10	fulfilled
RRIRGRPPRLPRPRPRPVIDPRP	Escherichia coli TOP10	fulfilled
RRIRARPPRLPRPRPRPLKGPRP	Escherichia coli TOP10	fulfilled
